The reported measurements were obtained from paper PMC9745668.

We begin with a simple list: items and their reported Km.
- Substrate: C=C(C)CCOP(=O)(O)O
- procedure_details: PK-LDH coupled assay, A340
- Format: biochemical, Methanomethylophilus alvi
- conditions_used: 2 mM ATP, 5 mM MgCl2, 25 mM Tris pH 7.8, 37 °C
measurement_label: Km (µM)

- protein: "IPK from Candidatus methanomethylophilus alvus (CMA) (Candidatus Methanomethylophilus alvi Mx1201; V208A) (protein) MILIKLGGSVITDKSEYHKFNKETVSRLADEIRRSGQDVMVVHGAGSFGHVIAKKYAIQDGHVDDGQIPAAARIMCDTRELSSMVVEELLAQGIPAVSVAPGSCFVMEDGKLIVDNEEPIRRLADLGIMPVMFGDVVPDRKKGFAIVSGDQCMEVLCRMFDPEKVVFVSDIDGLYTADPKTDKKARLIGEVTRKKLDEALTDITVADATGGVHSKMEAMLRMTDRNRRCYLVNGNAPNRLYSLLKGETVTCTVAKGGME"
  measurement_label: "Km"
  result_number: 75
- protein: "IPK from Candidatus methanomethylophilus alvus (CMA) (Candidatus Methanomethylophilus alvi Mx1201; I74A) (protein) MILIKLGGSVITDKSEYHKFNKETVSRLADEIRRSGQDVMVVHGAGSFGHVIAKKYAIQDGHVDDGQIPAAARAMCDTRELSSMVVEELLAQGIPAVSVAPGSCFVMEDGKLIVDNEEPIRRLADLGIMPVMFGDVVPDRKKGFAIVSGDQCMEVLCRMFDPEKVVFVSDIDGLYTADPKTDKKARLIGEVTRKKLDEALTDITVADVTGGVHSKMEAMLRMTDRNRRCYLVNGNAPNRLYSLLKGETVTCTVAKGGME"
  measurement_label: "Km"
  result_number: 220
- protein: "IPK from Candidatus methanomethylophilus alvus (CMA) (Candidatus Methanomethylophilus alvi Mx1201; T209A) (protein) MILIKLGGSVITDKSEYHKFNKETVSRLADEIRRSGQDVMVVHGAGSFGHVIAKKYAIQDGHVDDGQIPAAARIMCDTRELSSMVVEELLAQGIPAVSVAPGSCFVMEDGKLIVDNEEPIRRLADLGIMPVMFGDVVPDRKKGFAIVSGDQCMEVLCRMFDPEKVVFVSDIDGLYTADPKTDKKARLIGEVTRKKLDEALTDITVADVAGGVHSKMEAMLRMTDRNRRCYLVNGNAPNRLYSLLKGETVTCTVAKGGME"
  measurement_label: "Km"
  result_number: 50
- protein: "IPK from Candidatus methanomethylophilus alvus (CMA) (Candidatus Methanomethylophilus alvi Mx1201; I74A/V208A) (protein) MILIKLGGSVITDKSEYHKFNKETVSRLADEIRRSGQDVMVVHGAGSFGHVIAKKYAIQDGHVDDGQIPAAARAMCDTRELSSMVVEELLAQGIPAVSVAPGSCFVMEDGKLIVDNEEPIRRLADLGIMPVMFGDVVPDRKKGFAIVSGDQCMEVLCRMFDPEKVVFVSDIDGLYTADPKTDKKARLIGEVTRKKLDEALTDITVADATGGVHSKMEAMLRMTDRNRRCYLVNGNAPNRLYSLLKGETVTCTVAKGGME"
  measurement_label: "Km"
  result_number: 750
- protein: "IPK from Candidatus methanomethylophilus alvus (CMA) (Candidatus Methanomethylophilus alvi Mx1201; T209S) (protein) MILIKLGGSVITDKSEYHKFNKETVSRLADEIRRSGQDVMVVHGAGSFGHVIAKKYAIQDGHVDDGQIPAAARIMCDTRELSSMVVEELLAQGIPAVSVAPGSCFVMEDGKLIVDNEEPIRRLADLGIMPVMFGDVVPDRKKGFAIVSGDQCMEVLCRMFDPEKVVFVSDIDGLYTADPKTDKKARLIGEVTRKKLDEALTDITVADVSGGVHSKMEAMLRMTDRNRRCYLVNGNAPNRLYSLLKGETVTCTVAKGGME"
  measurement_label: "Km"
  result_number: 37
- protein: "IPK from Candidatus methanomethylophilus alvus (CMA) (Candidatus Methanomethylophilus alvi Mx1201; I146A) (protein) MILIKLGGSVITDKSEYHKFNKETVSRLADEIRRSGQDVMVVHGAGSFGHVIAKKYAIQDGHVDDGQIPAAARIMCDTRELSSMVVEELLAQGIPAVSVAPGSCFVMEDGKLIVDNEEPIRRLADLGIMPVMFGDVVPDRKKGFAAVSGDQCMEVLCRMFDPEKVVFVSDIDGLYTADPKTDKKARLIGEVTRKKLDEALTDITVADVTGGVHSKMEAMLRMTDRNRRCYLVNGNAPNRLYSLLKGETVTCTVAKGGME"
  measurement_label: "Km"
  result_number: 160
